biological target: UniProt:Q8VH26; assay: Antagonistic activity against M3 muscarinic receptor in guinea pig left ileum derived by plotting log(DR - 1) vs log[antagonist]; assay type: functional, tissue-based; conditions: read-out: pA2 (converted)
Sequence (Q8VH26 whole entry): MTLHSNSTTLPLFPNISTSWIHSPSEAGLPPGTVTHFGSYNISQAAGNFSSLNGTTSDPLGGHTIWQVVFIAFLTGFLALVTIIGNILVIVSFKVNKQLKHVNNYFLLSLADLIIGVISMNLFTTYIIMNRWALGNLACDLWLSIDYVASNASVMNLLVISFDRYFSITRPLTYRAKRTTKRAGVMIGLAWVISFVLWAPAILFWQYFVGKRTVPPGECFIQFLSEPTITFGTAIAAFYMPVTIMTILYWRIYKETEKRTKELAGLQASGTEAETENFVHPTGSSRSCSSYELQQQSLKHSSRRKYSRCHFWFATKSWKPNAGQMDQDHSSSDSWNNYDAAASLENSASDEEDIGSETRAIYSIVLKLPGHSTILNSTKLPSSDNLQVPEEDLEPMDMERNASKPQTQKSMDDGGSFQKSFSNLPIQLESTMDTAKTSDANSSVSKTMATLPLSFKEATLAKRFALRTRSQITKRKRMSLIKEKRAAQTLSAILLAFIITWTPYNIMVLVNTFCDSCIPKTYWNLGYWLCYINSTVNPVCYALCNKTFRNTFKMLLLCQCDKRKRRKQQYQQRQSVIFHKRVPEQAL
readoutType: Kb (nM)

Use these answered entries as a reference point.
1. CCN(CC)CCCCC1CCN(CC(=O)N2c3ccccc3C(=O)Nc3cccnc32)CC1    100
2. CN(CCCCCCN)CCCCCCCCN(C)CCCCCCN(CC(=O)N1c2ccccc2C(=O)Nc2cccnc21)CC(=O)N1c2ccccc2C(=O)Nc2cccnc21.O=C(O)C(=O)O.O=C(O)C(=O)O.O=C(O)C(=O)O.O=C(O)C(=O)O    1550
3. CCN(CC)CCCCCCN(CC(=O)N1c2ccccc2C(=O)Nc2cccnc21)Cc1ccccc1OC    1260
4. CCN(CC)CCCCCCNCC(=O)N1c2ccccc2C(=O)Nc2cccnc21    832

[a] CN(CCCCCCN)CCCCCCCCN(C)CCCCCCN
[b] CN(CCCCCCN)CCCCCCCCN(C)CCCCCCNCC(=O)N1c2ccccc2C(=O)Nc2cccnc21
[c] COc1ccccc1CNCCCCCCN(C)CCCCCCCCN(C)CCCCCCN(CC(=O)N1c2ccccc2C(=O)Nc2cccnc21)CC(=O)N1c2ccccc2C(=O)Nc2cccnc21.O=C(O)C(=O)O.O=C(O)C(=O)O.O=C(O)C(=O)O.O=C(O)C(=O)O
In: Sort by Kb, descending. Provide the labels, sequenced as the question asks.
Out: a, b, c
(a: 7590 nM, b: 661 nM, c: 447 nM)
